Test: Absorption: hematic levels at different times from the oral administration
Assay type: in vivo
Details: blood, 100 mg/kg expressed as vincamine and apovincamine, suspension in 5% carboxymethyl cellulose, chromatographic method, read-out: max. conc. time (converted)
Description: All the compounds have been orally administered at the dosage of 100 mg/kg, expressed as vincamine and apovincamine, in form of a suspension in a 5% carboxymethyl cellulose solution. The absorption was determined by evaluating the hematic levels at the following times (minutes): 0, 30, 120, 240, 480, 10 hours and 12 hours, at which it was possible to assess the time, from the administration, of the maximum hematic concentration. […]
Structures can show the parent of a compound that is named as a salt.
reportedEndpoint: Tmax (min)
One number for each entry, in min.

Answer with the recorded Tmax for the compound listed here: CC[C@]12CCCN3CCc4c(n(c5ccccc45)[C@@](O)(C(=O)OC)C1)[C@@H]32 [Vincamine HCl, reference compound] 20

***
Answer with the recorded Tmax for the compound listed here: CC[C@@]12C=C(C(=O)OC)n3c4c(c5ccccc53)CCN(CCC1)[C@H]42 [Apovincamine, reference compound] 60

---

Test system: mouse of the Swiss type
Experiment: Acute toxicity per intraperitoneal route (LD50, method of Litchfield and Wilcoxon; Gleason classification)
Format: in vivo
Conditions: Gleason toxicity class, mouse i.p.
Where a name gives a salt, the structure may show the parent alone.
reportedEndpoint: Tox (Gleason)

# example entries with known answers
Answer with the recorded Tox (Gleason) for the molecule listed here: CC[C@]12CCCN3CC(O)c4c(n(c5ccccc45)C(O)(C(=O)OC)C1)[C@@H]32 (some centres unmarked) [6-hydroxyvincamine] modest

Answer with the recorded Tox (Gleason) for the molecule listed here: CC[C@]12CCCN3CCc4c(n(c5ccccc45)[C@@](O)(C(=O)OC)C1)[C@@H]32 [Vincamine HCl, reference compound] modest

Answer with the recorded Tox (Gleason) for the molecule listed here: CC[C@@]12C=C(C(=O)OC)n3c4c(c5ccccc53)CCN(CCC1)[C@H]42 [Apovincamine, reference compound] negligible

Answer with the recorded Tox (Gleason) for the molecule listed here: CC[C@]12CCCN3CC(=O)c4c(n(c5ccccc45)C(O)(CO)C1)[C@@H]32 (some centres unmarked) [6-ketovincaminol] light

Kindly review the next molecule as well.
Answer with the recorded Tox (Gleason) for the molecule listed here: CC[C@]12CCCN3CC(=O)c4c(n(c5ccccc45)[C@](O)(C(=O)OC)C1)[C@@H]32 [6-keto-16-epivincamine] negligible

---

Experiment: Acute toxicity per intraperitoneal route (LD50, method of Litchfield and Wilcoxon; Gleason classification)
Format: in vivo
Settings: in vivo, ip; Swiss male mouse, suspension in 1% carboxymethylcellulose, observation 8 days
Counter-ions that a name gives are not always drawn.
reportedEndpoint: LD50 at 192 h

# example entries with known answers
Answer with the recorded LD50 at 192 h for the molecule listed here: CC[C@@]12C=C(C(=O)OC)n3c4c(c5ccccc53)CCN(CCC1)[C@H]42 [Apovincamine, reference compound] > 2000 mg/kg

Answer with the recorded LD50 at 192 h for the molecule listed here: CC[C@]12CCCN3CC(O)c4c(n(c5ccccc45)C(O)(C(=O)OC)C1)[C@@H]32 (some centres unmarked) [6-hydroxyvincamine] 900 mg/kg

Answer with the recorded LD50 at 192 h for the molecule listed here: CC[C@]12CCCN3CC(=O)c4c(n(c5ccccc45)[C@@](O)(C(=O)OC)C1)[C@@H]32 [6-ketovincamine] > 2000 mg/kg

Answer with the recorded LD50 at 192 h for the molecule listed here: CC[C@]12CCCN3CC(=O)c4c(n(c5ccccc45)C(=O)C1)[C@@H]32 [6-ketovincamone] > 2000 mg/kg

Answer with the recorded LD50 at 192 h for the molecule listed here: CC[C@]12CCCN3CC(=O)c4c(n(c5ccccc45)C(O)(CO)C1)[C@@H]32 (some centres unmarked) [6-ketovincaminol] 1500 mg/kg

Parameter requested: LD50 at 192 h. Apply to each item below.
1. CC[C@]12CCCN3CCc4c(n(c5ccccc45)[C@@](O)(C(=O)OC)C1)[C@@H]32 [Vincamine HCl, reference compound]
2. CC[C@]12CCCN3CC(=O)c4c(n(c5ccccc45)[C@](O)(C(=O)OC)C1)[C@@H]32 [6-keto-16-epivincamine]
3. CC[C@@]12C=C(C(=O)OC)n3c4c(c5ccccc53)C(=O)CN(CCC1)[C@H]42 [6-ketoapovincamine]

["800 mg/kg", "> 2000 mg/kg", "> 2000 mg/kg"]
